Biological target: gastrin-releasing peptide receptor (human, UniProt P30550 1-384)
Sequence (P30550 whole entry): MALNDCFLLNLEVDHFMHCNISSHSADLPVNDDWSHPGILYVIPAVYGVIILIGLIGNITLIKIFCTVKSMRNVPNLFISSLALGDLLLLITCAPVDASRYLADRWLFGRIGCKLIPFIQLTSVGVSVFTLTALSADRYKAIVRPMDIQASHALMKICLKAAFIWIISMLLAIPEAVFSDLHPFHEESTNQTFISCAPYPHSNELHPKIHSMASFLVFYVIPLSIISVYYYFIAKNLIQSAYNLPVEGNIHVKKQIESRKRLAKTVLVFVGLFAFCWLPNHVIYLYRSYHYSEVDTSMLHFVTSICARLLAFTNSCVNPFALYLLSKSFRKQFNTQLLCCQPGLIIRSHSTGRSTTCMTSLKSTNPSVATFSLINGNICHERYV
Assay: radioligand binding
IR800 = IRDye800CW
Measured metric: IC50 (nM)

>  <Binder>
IR800-GSGQWAVGHLM-NH2 [IR800-GSG-t-BBN]

>  <Reported measurement>
57.4

$$$$
